Tested on: L02
Assay: Cytotoxicity against human LO2 cells assessed as reduction in cell viability after 72 hrs by MTT assay
Assay type: cell-based
Conditions: L02, 72 h
Readout Kind: IC50

Asked: Specify IC50 for C=C[C@]1(C)CC[C@@H](C(=C)COC(=O)CCC(=O)OCCOc2no[n+]([O-])c2S(=O)(=O)c2ccccc2)C[C@H]1C(=C)C and stop.
Given back: 30.4 µM

====

Test system: HeLa
Test: Antiproliferative activity against human HeLa cells after 72 hrs by MTT assay
Format: functional, cell-based
Readout Kind: pIC50
Field pIC50 (float): negative decimal logarithm of the concentration in molar.

Sample answers from the record:
| Smiles Representation | Readout Kind | Reported |
| --- | --- | --- |
| C=C[C@]1(C)CC[C@@H](C(=C)COC(=O)CCC(=O)OCCCCCCOc2no[n+]([O-])c2S(=O)(=O)c2ccccc2)C[C@H]1C(=C)C | pIC50 | 4.64 |
| C=C[C@]1(C)CC[C@@H](C(=C)COC(=O)CCC(=O)OCCOCCOc2no[n+]([O-])c2S(=O)(=O)c2ccccc2)C[C@H]1C(=C)C | pIC50 | 5.24 |

Asked: Give pIC50 for this entry on HeLa: C=C[C@]1(C)CC[C@@H](C(=C)COC(=O)[C@H](Cc2ccccc2)NC(=O)CCC(=O)OCCCCOc2no[n+]([O-])c2S(=O)(=O)c2ccccc2)C[C@H]1C(=C)C
Given back: 4.97

Asked: Give pIC50; test system HeLa; molecule C=C[C@]1(C)CC[C@@H](C(=C)COC(=O)CCC(=O)OCC#CCOc2no[n+]([O-])c2S(=O)(=O)c2ccccc2)C[C@H]1C(=C)C
Given back: 5.42

Asked: Provide pIC50, tested on HeLa, for C=C[C@]1(C)CC[C@@H](C(=C)COC(=O)CCC(=O)OCCCCOc2no[n+]([O-])c2S(=O)(=O)c2ccccc2)C[C@H]1C(=C)C .
Given back: 4.96

Asked: Enter measured pIC50, system HeLa, for the molecule shown: C=C[C@]1(C)CC[C@@H](C(=C)COC(=O)[C@@H](N)CC(=O)OCCCCOc2no[n+]([O-])c2S(=O)(=O)c2ccccc2)C[C@H]1C(=C)C
Given back: 5.44

Asked: Quote pIC50 with test system HeLa for C=C[C@]1(C)CC[C@@H](C(=C)COC(=O)[C@@H]2CCCN2C(=O)CCC(=O)OCCCCOc2no[n+]([O-])c2S(=O)(=O)c2ccccc2)C[C@H]1C(=C)C
Given back: 4.95

Asked: Provide pIC50, tested on HeLa, for C=C[C@]1(C)CC[C@@H](C(=C)COC(=O)CCNC(=O)CCC(=O)OCCCCOc2no[n+]([O-])c2S(=O)(=O)c2ccccc2)C[C@H]1C(=C)C .
Given back: 5.05
